SYSTEM UNDER TEST: mutated human GLP-2R (Homo sapiens, UniProt O95838, E512D/G511A/L513V)
Construct: expressed in transfected cells; host or cells: HEK 293E clonal cell line
Sequence (O95838 whole entry G511A/E512D/L513V): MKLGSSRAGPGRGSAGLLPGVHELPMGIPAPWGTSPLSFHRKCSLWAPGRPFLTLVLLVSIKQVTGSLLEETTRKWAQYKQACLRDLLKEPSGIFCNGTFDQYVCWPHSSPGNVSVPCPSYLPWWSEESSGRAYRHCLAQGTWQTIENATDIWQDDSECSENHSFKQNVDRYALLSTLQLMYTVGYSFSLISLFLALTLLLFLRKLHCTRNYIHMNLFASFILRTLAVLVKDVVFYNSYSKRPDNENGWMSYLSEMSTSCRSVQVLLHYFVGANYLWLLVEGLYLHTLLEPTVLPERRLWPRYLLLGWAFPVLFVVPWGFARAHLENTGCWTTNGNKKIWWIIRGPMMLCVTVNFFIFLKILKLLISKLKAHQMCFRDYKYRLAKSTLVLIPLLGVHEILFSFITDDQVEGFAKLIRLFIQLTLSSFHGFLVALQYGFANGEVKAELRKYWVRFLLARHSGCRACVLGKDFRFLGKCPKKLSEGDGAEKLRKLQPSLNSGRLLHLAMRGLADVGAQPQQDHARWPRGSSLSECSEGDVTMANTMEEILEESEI
TEST SUMMARY: cAMP expression assay in HEK 293E clonal cell line expressing mutated human GLP-2R
Format: cell-based
CONDITION DETAILS: Example 2; 30 minutes incubation; mimetibodies vs corresponding peptides; read-out: EC50, stimulation of cAMP expression
Text: To achieve this goal, a clonal cell line expressing a mutated human GLP-2R was generated by transfecting HEK 293E cells. The mutated human GLP-2R differs from the wild-type human GLP-2R (SEQ ID NO: 35) at three amino acid positions within the C-terminal intracellular region (SEQ ID NO: 36). The cAMP expression was quantitated using the cAMP Direct Screen System (Cat. No. CSD 200, Applied Biosystems, Bedford, Mass.). […]
Ends that are not written are not given here.
PROPERTY: EC50

Item: HSDGSFSDEMNTILDNLAARDFINWLIQTKITD [SEQ ID NO: 2, reference compound] | EC50: 500 pM

The values you see were collected from patent US20070212355A1.
